Test system: STING / NF-κB pathway in THP1-Dual cells
measurement_description: STING THP1 Reporter Assay, NF-κB pathway (SEAP, QUANTI-Blue)
Assay type: cell-based
condition_details: 10% human plasma, 20 hours, 100% activation = 100 μM cGAMP, SEAP readout, read-out: THP1 Reporter Assays EC50 NFkB
parameter_measured: pEC50
Hey, just a heads up that pEC50 is the negative log base 10 of the concentration in molar.

Solved entries:
Exercise: Quick one: pEC50 for Nc1ncnc2c1ncn2[C@@H]1O[C@@H]2COP(=O)(S)O[C@@H]3[C@H](O)[C@@H](COP(=O)(S)O[C@H]2[C@H]1F)O[C@H]3n1nnc2c([N+](=O)[O-])cccc21 (single isomer, unassigned) [Example 7-1] ?
Key: 5.68

Exercise: Would you mind telling me what pEC50 value was observed for Nc1ncnc2c1ncn2[C@@H]1O[C@@H]2COP(=O)(S)O[C@@H]3[C@H](F)[C@@H](COP(=O)(S)O[C@H]2[C@H]1F)O[C@H]3n1nnc2c(N)cccc21 (single isomer, unassigned) [Example 13-1] ?
Key: 5.31

Exercise: Which measured pEC50 value corresponds to NC(=O)c1cccc2c1nnn2[C@@H]1O[C@@H]2COP(=O)(S)O[C@H]3[C@@H](F)[C@H](n4cnc5c(N)ncnc54)O[C@@H]3COP(=O)(S)O[C@@H]1[C@@H]2O (single isomer, unassigned) [Example 8-2] ?
Key: 5.12

***
Exercise: Item C=C1[C@H]2OP(=O)(S)OC[C@H]3O[C@@H](n4cnc5c(N)ncnc54)[C@H](F)[C@@H]3OP(=O)(S)OC[C@H]1O[C@H]2n1nnc2c(C(N)=O)cccc21 (single isomer, unassigned) [Example 22-2] has what recorded pEC50?
Key: 5.00

----------
// reported log10 of IC50 for each item listed
target_of_assay: STING WT (His-TVMV-S-hSTING(155-341)-H232R) (Homo sapiens, UniProt Q86WV6, H232R)
Construct: STING WT: His-TVMV-S-hSTING(155-341)-H232R
Sequence (Q86WV6 with tags, fused parts or gaps H232R): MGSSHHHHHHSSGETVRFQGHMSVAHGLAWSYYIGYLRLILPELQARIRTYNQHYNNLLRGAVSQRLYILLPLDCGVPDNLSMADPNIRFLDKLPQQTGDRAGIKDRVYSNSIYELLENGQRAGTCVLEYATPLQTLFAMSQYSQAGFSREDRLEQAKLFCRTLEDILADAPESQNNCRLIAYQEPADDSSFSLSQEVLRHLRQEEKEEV
measurement_description: STING HTRF binding assay (time resolved FRET competition), STING WT
condition_details: 20 nM His-tagged STING WT cytoplasmic domain, 200 nM fluorescein-labeled cGAMP analog probe, one hour; read-out: HTRF Binding Assays IC50 WT
// units: nM (pre-log); metric: IC50; scale: log10

Exercise: Reported log10 of IC50 for NC(=O)c1cccc2c1nnn2[C@@H]1O[C@@H]2COP(=O)(S)O[C@H]3[C@@H](F)[C@H](n4cnc5c(N)ncnc54)O[C@@H]3COP(=O)(S)O[C@@H]1[C@@H]2O (single isomer, unassigned) [Example 8-2] : what is it?
Key: 1.00

***
Exercise: Requested field: log10 of IC50. Item: Nc1ncnc2c1ncn2[C@@H]1O[C@@H]2COP(=O)(S)O[C@@H]3[C@H](F)[C@@H](COP(=O)(S)O[C@H]2[C@H]1F)O[C@H]3n1nnc2c(N)cccc21 (single isomer, unassigned) [Example 13-1]
Key: 1.85

Exercise: Can you share its log10 of IC50? I mean this compound: NC(=O)c1cccc2c1nnn2[C@@H]1O[C@@H]2COP(=O)(S)O[C@H]3[C@@H](F)[C@H](n4cnc5c(N)ncnc54)O[C@@H]3COP(=O)(S)O[C@@H]1[C@@H]2F (single isomer, unassigned) [Example 10-1]
Key: 1.30
